- assayedSystem: 5FW LecA (Pseudomonas aeruginosa, UniProt Q05097)
- Construct: made in house; host or cells: Escherichia coli BL21 (DE3), plasmid pET25pa1l, grown with 5-fluoroindole
- Sequence (Q05097 2-122): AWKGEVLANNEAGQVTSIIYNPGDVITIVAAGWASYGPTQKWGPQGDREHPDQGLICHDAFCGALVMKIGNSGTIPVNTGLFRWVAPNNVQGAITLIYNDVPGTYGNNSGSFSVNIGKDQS
- experimentalProtocol: PrOF NMR titration of ligands to 5FW LecA (W42 peak intensity)
- Type: binding
- assaySetup: 100 μM apo 5FW LecA, MES pH 6, 310 K, one-site-binding model, three independent titrations; read-out: Kd (PrOF NMR, Ca2+ titration)
attributeMeasured: pKd
The scale used: pKd is minus the common logarithm of the concentration in molar units.

Give pKd only, for [Ca+2] , using 5FW LecA (Pseudomonas aeruginosa, UniProt Q05097) data.
3.32

Data provenance: paper PMC7874386
